TARGET: T1, TipAL I112A/F123A (Streptomyces lividans, UniProt P0A4T9 1-253, I112A;F123A)
T1 sequence: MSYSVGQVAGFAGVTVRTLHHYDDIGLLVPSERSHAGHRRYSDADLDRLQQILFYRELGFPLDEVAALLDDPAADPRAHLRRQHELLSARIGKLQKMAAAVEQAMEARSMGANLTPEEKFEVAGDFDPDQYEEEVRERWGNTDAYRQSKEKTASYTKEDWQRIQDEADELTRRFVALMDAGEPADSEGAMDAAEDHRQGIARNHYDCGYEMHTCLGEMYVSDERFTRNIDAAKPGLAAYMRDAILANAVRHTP
TEST: fluorescence polarization; thiostrepton 1:1; 20 mM Tris-HCl pH 7.5, 200 mM NaCl, 5% (v/v) glycerol, 298 K; 10 nM labeled DNA
CONDITION_PARAMETERS: protein: recombinant; tags: His6 (pET-28a); chain copies: 2; label: 5'-carboxyfluorescein; blunt
REPORTED_PROPERTY: Kd (nM)
Provide only the numeric value, understood in nM.

## Input GET /values?readout=Kd&item= ptipA (dsDNA) DNA 1: TTGCACCTCACGTCACGTGAGGAGGC DNA 2: GCCTCCTCACGTGACGTGAGGTGCAA
## Output 685
